Experiment summary: Cytotoxicity against human HL60 cells after 72 hrs by CCK-8 assay
Type: functional, cell-based
Condition description: HL-60, 72 h
# key: entry, value: IC50
The reply should be a number in µM, with the unit left off.

Some molecules with recorded IC50:
molecule=Cc1c(Cl)ccc2c1NC(=O)/C2=C/C(=O)OC(C)(C)C result_number=3.64
molecule="CN1C(=O)C(CC(=O)OC(C)(C)C)c2ccccc21 (centres undefined)" result_number=93.1

Please supply the value of reported IC50 for the item CC(C)(C)OC(=O)/C=C1/C(=O)N(Cc2ccccc2)c2ccccc21
13.8

###

Experiment summary: Cytotoxicity against human MDA-MB-231 cells after 72 hrs by CCK-8 assay
Type: functional, cell-based
Condition description: MDA-MB-231, 72 h
Assay metric: IC50 (nM)
The reply should be a number in nM, with the unit left off.

structure_string=CC(C)(C)OC(=O)/C=C1/C(=O)Nc2ccc(Cl)cc21 result_number=3110

Then there is this molecule:
Please supply the value of reported IC50 for the item CC(C)(C)OC(=O)/C=C1/C(=O)Nc2ccccc21
2520
